- Tested on: cerebrocortical cat brain tissue slices
- assay_name: In vitro Cerebrocortical Cat Brain Tissue Slice Assay (inhibition of HCO3^- -stimulated swelling)
- condition: 60 minutes, 37° C., 10 mM HCO3^-, 27 mM K^+, hydrate
value_type: pIC50
# pIC50: negative log10 of molar concentration; output just the value

>>> print(df.to_string())
                                   compound  value_type  observed
0  CC1(C2CCCC2)Cc2cc(OCC(=N)N)c(Cl)c(Cl)c2C1=O (single isomer, unassigned; (-)) [Example 7, hydrate]       pIC50      8.30

Now look at this entry.
What does the record list as pIC50 for CC1(C2CCCC2)Cc2cc(OCC(=N)N)c(Cl)c(Cl)c2C1=O (single isomer, unassigned; (+)) [Example 6, hydrate] ?
7.00
